Tested on: rodent lifetime carcinogenesis bioassay, tumor incidence TD50
Test: carcinogenic potency in animals, long-term in vivo studies, CPDB compilation (AID 1745844)
Details: mouse; strain B6C3F1; females; by gavage; site: forestomach; lesion: squamous-cell carcinoma + squamous-cell papilloma; dosed 103 weeks; study length 104 weeks
metric: TD50

Note to self: TD50 of `O=c1ccc2ccccc2o1` with rodent lifetime carcinogenesis bioassay, tumor incidence TD50 was 42000 mg/kg/day

Note to self: TD50 of `c1ccc2occc2c1` with rodent lifetime carcinogenesis bioassay, tumor incidence TD50 was 145 mg/kg/day

----------
System: rodent lifetime carcinogenesis bioassay, tumor incidence TD50
Test: carcinogenic potency in animals, long-term in vivo studies, CPDB compilation (AID 1745844)
Settings: mouse; strain ICR/Jcl; males; in feed; site: liver; lesion: hepatoma; dosed 52 weeks; study length 52 weeks
metric: TD50

# TD50 of `Nc1ccc(Oc2ccc(N)c(N)c2)cc1` = 13.3 mg/kg/day

----------
Tested on: rodent lifetime carcinogenesis bioassay, tumor incidence TD50
Test: carcinogenic potency in animals, long-term in vivo studies, CPDB compilation (AID 1745844)
Details: rat; strain Fischer 344; females; in feed; site: mammary gland; lesion: adenocarcinoma, NOS + adenoma, NOS + fibroadenoma; dosed 103 weeks; study length 104 weeks
metric: TD50 (mg/kg/day)
The response must be a number in mg/kg/day with no trailing unit.

# TD50 of `N=C1C=CC(=C(c2ccc(N)cc2)c2ccc(N)cc2)C=C1` = 25.4

----------
Test system: rodent lifetime carcinogenesis bioassay, tumor incidence TD50
Experiment: carcinogenic potency in animals, long-term in vivo studies, CPDB compilation (AID 1745844)
Conditions: mouse; strain B6C3F1; males; inhaled; site: kidney; lesion: tubule adenoma; dosed 26 weeks; study length 104 weeks
metric: TD50

# TD50 of `C=CC=C` = 961 mg/kg/day

----------
System: rodent lifetime carcinogenesis bioassay, tumor incidence TD50
Assay: carcinogenic potency in animals, long-term in vivo studies, CPDB compilation (AID 1745844)
Conditions: rat; strain Wistar; males; in feed; site: testis; lesion: Leydig-cell adenoma; dosed 104 weeks; study length 104 weeks
metric: TD50

# TD50 of `CCn1cc(C(=O)O)c(=O)c2cc3c(cc21)OCO3` = 167 mg/kg/day

----------
Record form. Attribute: TD50. Fill in for each entry.
Tested on: rodent lifetime carcinogenesis bioassay, tumor incidence TD50
Experiment: carcinogenic potency in animals, long-term in vivo studies, CPDB compilation (AID 1745844)
Details: mouse; strain Swiss albino; females; in drinking water; site: lung; lesion: several types; types named in the paper; dosed 83 weeks; study length 83 weeks

# TD50 of `NNC=O` = 36 mg/kg/day

# TD50 of `O=CNNC=O` = 571 mg/kg/day

# TD50 of `C=CCNNCC=C` = 33.8 mg/kg/day

----------
Tested on: rodent lifetime carcinogenesis bioassay, tumor incidence TD50
Assay: carcinogenic potency in animals, long-term in vivo studies, CPDB compilation (AID 1745844)
Details: mouse; strain B6C3F1; females; i.p.; site: multiple organs; lesion: granulocytic leukemia + granulocytic sarcoma; dosed 52 weeks; study length 81 weeks
metric: TD50

# TD50 of `Nc1ncn([C@@H]2O[C@H](CO)[C@@H](O)[C@H]2O)c(=O)n1` = 0.52 mg/kg/day

----------
Test system: rodent lifetime carcinogenesis bioassay, tumor incidence TD50
Test: carcinogenic potency in animals, long-term in vivo studies, CPDB compilation (AID 1745844)
Conditions: mouse; strain B6C3F1; males; inhaled; site: all sites; lesion: histiocytic sarcoma; dosed 13 weeks; study length 104 weeks
metric: TD50

# TD50 of `C=CC=C` = 91.1 mg/kg/day
